Value source: paper PMC4434323

Below are binding signal (PBM E-score (-0.5 to 0.5)) values recorded for scrt-1 (C55C2.1) (Caenorhabditis elegans).
Numbers only.

Answered cases to consult:
AACCACTG (double strand) [8-mer AACCACTG]; 0.475
CAACCACC (double strand) [8-mer CAACCACC]; 0.483
AGTGGTTG (double strand) [8-mer AGTGGTTG]; 0.492

Respectfully, I request binding signal (PBM E-score (-0.5 to 0.5)) for each entry included below.
1. ACAACCAC (double strand) [8-mer ACAACCAC]
2. AACCACTA (double strand) [8-mer AACCACTA]
3. AAACCACT (double strand) [8-mer AAACCACT]

RESULT:
0.472
0.46
0.453

Please look at the items below and tell me binding signal (PBM E-score (-0.5 to 0.5)) for each one, in order.
1. AACCACTT (double strand) [8-mer AACCACTT]
2. AACCACCT (double strand) [8-mer AACCACCT]

RESULT:
1. 0.476
2. 0.464

---

The next entries give measured binding signal (PBM E-score (-0.5 to 0.5)) for gei-3 (T22H6.6) (Caenorhabditis elegans) (UniProt Q0G833).
Numbers only.

# example entries with known answers
TCAATGGA (double strand) [8-mer TCAATGGA]; 0.473
ATCAATGG (double strand) [8-mer ATCAATGG]; 0.477
AAATGAAT (double strand) [8-mer AAATGAAT]; 0.472
ATGAATGG (double strand) [8-mer ATGAATGG]; 0.489
CATTCATA (double strand) [8-mer CATTCATA]; 0.474

Answer for every listed entry: what is its binding signal (PBM E-score (-0.5 to 0.5))? The entries follow.
1. CCCATTCA (double strand) [8-mer CCCATTCA]
2. TCCATTCA (double strand) [8-mer TCCATTCA]
3. TGAATGAA (double strand) [8-mer TGAATGAA]
4. ATGAATGA (double strand) [8-mer ATGAATGA]
5. CATTGATA (double strand) [8-mer CATTGATA]
6. TCAATTGA (double strand) [8-mer TCAATTGA]

RESULT:
1: 0.478; 2: 0.48; 3: 0.491; 4: 0.489; 5: 0.472; 6: 0.484

---

Assign binding signal (PBM E-score (-0.5 to 0.5)) to each entry below.
Biological target: F10B5.3 (F10B5.3) (Caenorhabditis elegans) (UniProt Q09534)
Sequence: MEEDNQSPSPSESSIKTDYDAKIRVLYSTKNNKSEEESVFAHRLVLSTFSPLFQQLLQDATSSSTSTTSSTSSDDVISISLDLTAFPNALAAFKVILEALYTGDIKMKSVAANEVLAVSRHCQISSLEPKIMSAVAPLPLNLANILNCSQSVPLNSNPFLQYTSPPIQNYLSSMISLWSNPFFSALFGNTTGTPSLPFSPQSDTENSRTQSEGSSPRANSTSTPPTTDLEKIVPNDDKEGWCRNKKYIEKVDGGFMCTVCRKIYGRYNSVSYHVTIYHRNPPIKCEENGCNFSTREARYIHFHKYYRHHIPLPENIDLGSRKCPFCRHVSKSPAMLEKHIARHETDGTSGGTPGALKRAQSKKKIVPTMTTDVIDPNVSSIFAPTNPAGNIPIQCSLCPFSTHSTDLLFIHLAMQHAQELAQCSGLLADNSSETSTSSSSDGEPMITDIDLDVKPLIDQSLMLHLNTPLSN
Answers are plain numbers.

Here are 4 sequences together with their reported answers.
TTCCGGAA (double strand) [8-mer TTCCGGAA]; 0.49
TCCTCGAA (double strand) [8-mer TCCTCGAA]; 0.481
TTCCAGAA (double strand) [8-mer TTCCAGAA]; 0.491
ATTTCCAG (double strand) [8-mer ATTTCCAG]; 0.473

The following sequences each have a reported value; give each one's binding signal (PBM E-score (-0.5 to 0.5)).
1. TCGTGGAA (double strand) [8-mer TCGTGGAA]
2. CTGGAAAA (double strand) [8-mer CTGGAAAA]
3. TCCTGGAA (double strand) [8-mer TCCTGGAA]
4. TCCACGAA (double strand) [8-mer TCCACGAA]

RESULT:
0.483
0.475
0.491
0.476

Answer for every listed entry: what is its binding signal (PBM E-score (-0.5 to 0.5))? The entries follow.
1. TTCTAGAA (double strand) [8-mer TTCTAGAA]
2. CCTGGAAA (double strand) [8-mer CCTGGAAA]
3. TACACGAA (double strand) [8-mer TACACGAA]
4. TTCGAGAA (double strand) [8-mer TTCGAGAA]
5. GTTCCAGA (double strand) [8-mer GTTCCAGA]
6. TCTGGAAA (double strand) [8-mer TCTGGAAA]
7. CCTCGAAA (double strand) [8-mer CCTCGAAA]

RESULT:
[0.477, 0.48, 0.476, 0.477, 0.473, 0.487, 0.474]

---

Biological target: lsl-1 (F52F12.4) (Caenorhabditis elegans) (UniProt O02273)
Sequence: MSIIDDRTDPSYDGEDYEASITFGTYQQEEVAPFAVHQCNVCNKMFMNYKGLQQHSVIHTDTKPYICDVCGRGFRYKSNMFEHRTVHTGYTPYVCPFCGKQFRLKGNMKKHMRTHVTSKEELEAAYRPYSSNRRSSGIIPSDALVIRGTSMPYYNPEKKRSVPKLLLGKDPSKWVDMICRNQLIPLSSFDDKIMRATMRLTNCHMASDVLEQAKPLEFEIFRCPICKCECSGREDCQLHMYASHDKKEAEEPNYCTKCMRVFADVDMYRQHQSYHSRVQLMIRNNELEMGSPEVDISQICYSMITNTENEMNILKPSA
Would you kindly list binding signal (PBM E-score (-0.5 to 0.5)) for each of these sequences?

Field: binding signal (PBM E-score (-0.5 to 0.5)). Fill in for each record below.
1. ATACGGTA (double strand) [8-mer ATACGGTA]
2. CTACGGTA (double strand) [8-mer CTACGGTA]

RESULT:
1. 0.495
2. 0.491

Required: binding signal (PBM E-score (-0.5 to 0.5)), one value per sequence below.
1. TACGGTAA (double strand) [8-mer TACGGTAA]
2. GTACGGTA (double strand) [8-mer GTACGGTA]

RESULT:
0.492
0.494

---

Molecular target: ceh-90 (R03E1.4) (Caenorhabditis elegans) (UniProt Q69YW8)
Sequence: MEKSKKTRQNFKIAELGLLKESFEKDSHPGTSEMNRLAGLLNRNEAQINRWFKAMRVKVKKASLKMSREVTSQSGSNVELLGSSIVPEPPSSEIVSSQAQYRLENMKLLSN
Please provide measured binding signal (PBM E-score (-0.5 to 0.5)) for the entries that follow.
Give bare numbers.

Give binding signal (PBM E-score (-0.5 to 0.5)) for each listed item.
1. GGTTTTAA (double strand) [8-mer GGTTTTAA]
2. ACTAAAAC (double strand) [8-mer ACTAAAAC]
3. AGTTTTAG (double strand) [8-mer AGTTTTAG]
4. GGGTTTTA (double strand) [8-mer GGGTTTTA]
5. GGGTTTAA (double strand) [8-mer GGGTTTAA]
6. ATAAAACC (double strand) [8-mer ATAAAACC]
7. AAGTTTTA (double strand) [8-mer AAGTTTTA]
8. GGTTTTTA (double strand) [8-mer GGTTTTTA]

RESULT:
1. 0.498
2. 0.487
3. 0.486
4. 0.498
5. 0.487
6. 0.495
7. 0.492
8. 0.485

For each entry beneath this line, provide reported binding signal (PBM E-score (-0.5 to 0.5)).
1. AGTTTTAA (double strand) [8-mer AGTTTTAA]
2. CTAAAACC (double strand) [8-mer CTAAAACC]
3. ATTAAAAC (double strand) [8-mer ATTAAAAC]

RESULT:
0.492
0.493
0.487

---

Tested on: ztf-14 (M163.2) (Caenorhabditis elegans)
Sequence: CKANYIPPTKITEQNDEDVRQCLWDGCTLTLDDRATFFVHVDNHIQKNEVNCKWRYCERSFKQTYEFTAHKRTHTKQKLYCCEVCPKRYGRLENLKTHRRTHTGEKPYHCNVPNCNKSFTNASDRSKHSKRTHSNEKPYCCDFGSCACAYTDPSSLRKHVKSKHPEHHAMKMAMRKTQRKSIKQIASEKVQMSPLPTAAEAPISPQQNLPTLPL
Exercise: state measured binding signal (PBM E-score (-0.5 to 0.5)) for each of the sequences provided.
Numbers only.

ACCACCCA (double strand) [8-mer ACCACCCA]; 0.469
AGGCCACC (double strand) [8-mer AGGCCACC]; 0.453

QUERY: Using the record for ATGGGTGG (double strand) [8-mer ATGGGTGG] , report its binding signal (PBM E-score (-0.5 to 0.5)).
RESULT: 0.452

---

target: egl-13 (T22B7.1) (Caenorhabditis elegans)
I'd appreciate it if you could supply binding signal (PBM E-score (-0.5 to 0.5)) values for the items below.
Answers are plain numbers.

Dear reader, for each entry below, please note its binding signal (PBM E-score (-0.5 to 0.5)).
1. AACAATAG (double strand) [8-mer AACAATAG]
2. TAACAATA (double strand) [8-mer TAACAATA]

RESULT:
1: 0.485; 2: 0.464

For the 4 sequences below, give their binding signal (PBM E-score (-0.5 to 0.5)) values.
1. AAACAATA (double strand) [8-mer AAACAATA]
2. ATAACAAT (double strand) [8-mer ATAACAAT]
3. AACAATAA (double strand) [8-mer AACAATAA]
4. GAACAATA (double strand) [8-mer GAACAATA]

RESULT:
0.469
0.471
0.462
0.478

Each sequence below has a reported value. Please supply its binding signal (PBM E-score (-0.5 to 0.5)).
1. ACAACAAT (double strand) [8-mer ACAACAAT]
2. AACAATAC (double strand) [8-mer AACAATAC]
3. AGAACAAT (double strand) [8-mer AGAACAAT]

RESULT:
1: 0.455; 2: 0.453; 3: 0.469
